Taken from ChEMBL document CHEMBL1687926.

Assay info: Cmax in CD-1 mouse plasma at 50 mg/kg, ip by LC/MS/MS analysis
Assay type: ADME, organism-based
Parameters: dose 50 mg/kg, route intraperitoneal
Experimental endpoint: Cmax (ng/mL)
Could you give me the number in ng/mL? Just the number is fine.

Req: Find the recorded Cmax belonging to CCc1c2c(nc3ccccc13)-c1c(N)c3c(c(=O)n1C2)COC(=O)[C@]3(O)CC and report it.
Resp: 300

Let us move to another entry and its Cmax.
Req: Find the recorded Cmax belonging to CC[C@@]1(O)C(=O)OCc2c1c(N)c1n(c2=O)Cc2cc3ccccc3nc2-1 and report it.
Resp: 600

----------
The entries below come with measured pIC50 values attached.
System: PC-3
Assay info: Cytotoxicity against human PC3 cells after 72 hrs by alamar blue assay
Type: functional, cell-based
Assay setup: PC-3, 72 h
On this scale, pIC50 is minus log10 of a concentration expressed in M (mol/L).

Worked examples follow.
Req: Find the recorded pIC50 belonging to CC[C@@]1(O)C(=O)OCc2c1cc1n(c2=O)Cc2cc3ccccc3nc2-1 and report it.
Resp: 7.92

Req: Find the recorded pIC50 belonging to CC[C@@]1(O)C(=O)OCc2c1cc1n(c2=O)Cc2cc3c(CN(C)C)c(O)ccc3nc2-1 and report it.
Resp: 7.35

Req: Find the recorded pIC50 belonging to CCc1c2c(nc3ccccc13)-c1c(N)c3c(c(=O)n1C2)COC(=O)[C@]3(O)CC and report it.
Resp: 7.62

Req: Find the recorded pIC50 belonging to CCc1c2c(nc3ccc(OC(=O)N4CCC(N5CCCCC5)CC4)cc13)-c1cc3c(c(=O)n1C2)COC(=O)[C@]3(O)CC and report it.
Resp: 8.40

Let us move to another entry and its pIC50.
Req: Find the recorded pIC50 belonging to CC[C@@]1(O)C(=O)OCc2c1c(N)c1n(c2=O)Cc2cc3ccccc3nc2-1 and report it.
Resp: 7.37

----------
Assay info: AUC in CD-1 mouse plasma at 50 mg/kg, ip by LC/MS/MS analysis
Type: ADME, organism-based
Parameters: dose 50 mg/kg, route intraperitoneal
Experimental endpoint: AUC (ng·h/mL)
Could you give me the number in ng·h/mL? Just the number is fine.

Req: Find the recorded AUC belonging to CCc1c2c(nc3ccccc13)-c1c(N)c3c(c(=O)n1C2)COC(=O)[C@]3(O)CC and report it.
Resp: 1070

Req: Find the recorded AUC belonging to CC[C@@]1(O)C(=O)OCc2c1c(N)c1n(c2=O)Cc2cc3ccccc3nc2-1 and report it.
Resp: 1500

----------
The entries below come with measured Ratio values attached.
Assay info: Resistance ratio of IC50 for human MES-SA/Dx5 cells overexpressing MDR1 after 72 hrs to IC50 for human MESSA cells after 72 hrs
Format: functional
Just the number, please, no unit after it.

Worked examples follow.
Req: Find the recorded Ratio belonging to CC[C@@]1(O)C(=O)OCc2c1c(N)c1n(c2=O)Cc2cc3ccccc3nc2-1 and report it.
Resp: 1

Req: Find the recorded Ratio belonging to CCc1c2c(nc3ccccc13)-c1c(N)c3c(c(=O)n1C2)COC(=O)[C@]3(O)CC and report it.
Resp: 3

Req: Find the recorded Ratio belonging to CC[C@@]1(O)C(=O)OCc2c1cc1n(c2=O)Cc2cc3c(CN(C)C)c(O)ccc3nc2-1 and report it.
Resp: 8

Req: Find the recorded Ratio belonging to CCc1c2c(nc3ccc(OC(=O)N4CCC(N5CCCCC5)CC4)cc13)-c1cc3c(c(=O)n1C2)COC(=O)[C@]3(O)CC and report it.
Resp: 2

Continuing:
Req: Find the recorded Ratio belonging to CC[C@@]1(O)C(=O)OCc2c1cc1n(c2=O)Cc2cc3ccccc3nc2-1 and report it.
Resp: 1

----------
Assay info: Cytotoxicity against human bone marrow cell by CFU-GM assay
Assay type: cell-based
Assay setup: human, bone marrow cells
Experimental endpoint: IC90 (nM)
Could you give me the number in nM? Just the number is fine.

Worked examples follow.
Req: Find the recorded IC90 belonging to CCc1c2c(nc3ccc(OC(=O)N4CCC(N5CCCCC5)CC4)cc13)-c1cc3c(c(=O)n1C2)COC(=O)[C@]3(O)CC [IRINOTECAN] and report it.
Resp: 8

Req: Find the recorded IC90 belonging to CC[C@@]1(O)C(=O)OCc2c1c(N)c1n(c2=O)Cc2cc3ccccc3nc2-1 and report it.
Resp: 4800

Req: Find the recorded IC90 belonging to CCc1c2c(nc3ccccc13)-c1c(N)c3c(c(=O)n1C2)COC(=O)[C@]3(O)CC and report it.
Resp: 4500

Req: Find the recorded IC90 belonging to CC[C@@]1(O)C(=O)OCc2c1cc1n(c2=O)Cc2cc3c(CN(C)C)c(O)ccc3nc2-1 [TOPOTECAN] and report it.
Resp: 50

Let us move to another entry and its IC90.
Req: Find the recorded IC90 belonging to CC[C@@]1(O)C(=O)OCc2c1cc1n(c2=O)Cc2cc3c(N)cccc3nc2-1 [9-AMINOCAMPTOTHECIN] and report it.
Resp: 8

----------
Tested on: NCI-H69
Assay info: Cytotoxicity against human H69 cells after 72 hrs by alamar blue assay
Assay type: functional, cell-based
Assay setup: NCI-H69, 72 h
Labelling: IC50 reported below 6 nM becomes 1; at or above becomes 0.

Req: Dear reviewer, please state whether CC[C@@]1(O)C(=O)OCc2c1cc1n(c2=O)Cc2cc3ccccc3nc2-1 has IC50 strictly beneath 6 nM.
Resp: 1

Continuing:
Req: Dear reviewer, please state whether CCc1c2c(nc3ccccc13)-c1c(N)c3c(c(=O)n1C2)COC(=O)[C@]3(O)CC has IC50 strictly beneath 6 nM.
Resp: 0

Req: Dear reviewer, please state whether CCc1c2c(nc3ccc(OC(=O)N4CCC(N5CCCCC5)CC4)cc13)-c1cc3c(c(=O)n1C2)COC(=O)[C@]3(O)CC has IC50 strictly beneath 6 nM.
Resp: 0

Req: Dear reviewer, please state whether CC[C@@]1(O)C(=O)OCc2c1c(N)c1n(c2=O)Cc2cc3ccccc3nc2-1 has IC50 strictly beneath 6 nM.
Resp: 0

----------
Assay info: Tmax in CD-1 mouse plasma at 50 mg/kg, ip by LC/MS/MS analysis
Type: ADME, organism-based
Set-up: dose 50 mg/kg, route intraperitoneal
The entries below come with measured Tmax values attached.
Could you give me the number in min? Just the number is fine.

Req: Find the recorded Tmax belonging to CC[C@@]1(O)C(=O)OCc2c1c(N)c1n(c2=O)Cc2cc3ccccc3nc2-1 and report it.
Resp: 30

Req: Find the recorded Tmax belonging to CCc1c2c(nc3ccccc13)-c1c(N)c3c(c(=O)n1C2)COC(=O)[C@]3(O)CC and report it.
Resp: 60
